Recorded solubility in G1/S (log2) values for a group of sequences are listed next.
- Test system: HeLa Kyoto;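 further: HeLa Kyoto cells arrested at G1/S by double thymidine block, proteins quantified by TMT10plex mass spectrometry in mild NP-40 versus SDS extracts, three biological replicates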
- assay-remarks: solubility in G1/S (NP-40 vs SDS abundance) (log2 ratio); higher = more soluble
- assay-conditions: cell cycle stage: G1/S

MSSCSRVALVTGANRGIGLAIARELCRQFSGDVVLTARDVARGQAAVQQLQAEGLSPRFHQLDIDDLQSIRALRDFLRKEYGGLNVLVNNAAVAFKSDDPMPFDIKAEMTLKTNFFATRNMCNELLPIMKPHGRVVNISSLQCLRAFENCSEDLQERFHSETLTEGDLVDLMKKFVEDTKNEVHEREGWPNSPYGVSKLGVTVLSRILARRLDEKRKADRILVNACCPGPVKTDMDGKDSIRTVEEGAETPVYLALLPPDATEPQGQLVHDKVVQNW [CBR3] | 0.562

Now for another entry.
QUERY: Given the sequence MPKAKGKTRRQKFGYSVNRKRLNRNARRKAAPRIECSHIRHAWDHAKSVRQNLAEMGLAVDPNRAVPLRKRKVKAMEVDIEERPKELVRKPYVLNDLEAEASLPEKKGNTLSRDLIDYVRYMVENHGEDYKAMARDEKNYYQDTPKQIRSKINVYKRFYPAEWQDFLDSLQKRKMEVE [NOP16] , what is its reported solubility in G1/S (log2)?
RESULT: -1.15
